Here the recorded inhibition is given for each entry.
target: Casein kinase I isoform alpha (Homo sapiens) (UniProt P48729); experiment: Inhibition of recombinant full length human GST-tagged CSNK1A1 expressed in baculovirus expression system at 1 uM relative to control
Sequence (P48729 2-337 limits assumed): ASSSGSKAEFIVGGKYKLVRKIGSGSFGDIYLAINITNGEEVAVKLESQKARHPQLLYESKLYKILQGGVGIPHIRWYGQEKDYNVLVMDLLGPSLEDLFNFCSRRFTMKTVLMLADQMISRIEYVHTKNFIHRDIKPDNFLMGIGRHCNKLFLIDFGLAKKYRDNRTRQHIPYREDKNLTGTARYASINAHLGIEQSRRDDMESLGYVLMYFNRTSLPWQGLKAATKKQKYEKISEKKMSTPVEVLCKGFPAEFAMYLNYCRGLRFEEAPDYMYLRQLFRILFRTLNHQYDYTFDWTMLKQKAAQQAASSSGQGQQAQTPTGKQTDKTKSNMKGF
TEST READOUT: inhibition (%)

RECORD SMILES: COc1cc(C)c(S(N)(=O)=O)cc1C(=O)Nc1cccc(-c2nncn2C(C)C)n1
MEASUREMENT: 0
--
RECORD SMILES: COc1ccc(S(N)(=O)=O)cc1C(=O)Nc1cccc(-c2nncn2C(C)C)n1
MEASUREMENT: 0
--
RECORD SMILES: COc1ccc(C(N)=O)cc1C(=O)Nc1cccc(-c2nncn2C(C)C)n1
MEASUREMENT: 6
--
RECORD SMILES: COc1ccc(S(C)(=O)=O)cc1C(=O)Nc1cccc(-c2nncn2C(C)C)n1
MEASUREMENT: -3
--
RECORD SMILES: COc1cc(C)c(C(N)=O)cc1C(=O)Nc1cccc(-c2nncn2C(C)C)n1
MEASUREMENT: 15
--
RECORD SMILES: COc1cc(C)c(S(C)(=O)=O)cc1C(=O)Nc1cccc(-c2nncn2C(C)C)n1
MEASUREMENT: -1

----------
target: Serine/threonine-protein kinase pim-2 (Homo sapiens); assay: Inhibition of recombinant human full length GST-tagged PIM2 expressed in baculovirus expression system at 1 uM relative to control

RECORD SMILES: COc1ccc(S(N)(=O)=O)cc1C(=O)Nc1cccc(-c2nncn2C(C)C)n1
inhibition / %: 2
//
RECORD SMILES: COc1cc(C)c(S(C)(=O)=O)cc1C(=O)Nc1cccc(-c2nncn2C(C)C)n1
inhibition / %: 5
//
RECORD SMILES: COc1cc(C)c(S(N)(=O)=O)cc1C(=O)Nc1cccc(-c2nncn2C(C)C)n1
inhibition / %: 3
//
RECORD SMILES: COc1ccc(S(C)(=O)=O)cc1C(=O)Nc1cccc(-c2nncn2C(C)C)n1
inhibition / %: 2
//
RECORD SMILES: COc1cc(C)c(C(N)=O)cc1C(=O)Nc1cccc(-c2nncn2C(C)C)n1
inhibition / %: 0
//
RECORD SMILES: COc1ccc(C(N)=O)cc1C(=O)Nc1cccc(-c2nncn2C(C)C)n1
inhibition / %: -1

----------
target: 3-phosphoinositide-dependent protein kinase 1 (Homo sapiens) (UniProt O15530); assay: Inhibition of recombinant human full length His-tagged PDPK1 expressed in baculovirus expression system at 1 uM relative to control
Sequence (O15530 whole entry): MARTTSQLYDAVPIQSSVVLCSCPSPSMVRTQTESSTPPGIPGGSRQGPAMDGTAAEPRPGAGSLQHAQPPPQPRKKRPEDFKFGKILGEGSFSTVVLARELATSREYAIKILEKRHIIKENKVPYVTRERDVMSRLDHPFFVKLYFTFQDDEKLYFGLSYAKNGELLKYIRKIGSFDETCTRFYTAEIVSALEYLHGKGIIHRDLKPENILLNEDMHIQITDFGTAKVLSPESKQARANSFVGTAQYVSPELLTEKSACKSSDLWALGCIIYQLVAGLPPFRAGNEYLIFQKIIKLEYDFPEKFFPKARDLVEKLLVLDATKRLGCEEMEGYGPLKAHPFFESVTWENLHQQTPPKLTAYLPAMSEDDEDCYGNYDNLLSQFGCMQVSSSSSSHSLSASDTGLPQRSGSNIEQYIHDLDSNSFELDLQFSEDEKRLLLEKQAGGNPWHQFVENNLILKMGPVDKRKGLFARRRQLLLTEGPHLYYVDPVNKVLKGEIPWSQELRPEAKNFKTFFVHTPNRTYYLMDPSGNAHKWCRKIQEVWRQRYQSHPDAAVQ

RECORD SMILES: COc1cc(C)c(C(N)=O)cc1C(=O)Nc1cccc(-c2nncn2C(C)C)n1
TESTED SYSTEM: 3-phosphoinositide-dependent protein kinase 1 (Homo sapiens) (UniProt O15530)
inhibition / %: 10
//
RECORD SMILES: COc1ccc(S(N)(=O)=O)cc1C(=O)Nc1cccc(-c2nncn2C(C)C)n1
TESTED SYSTEM: 3-phosphoinositide-dependent protein kinase 1 (Homo sapiens) (UniProt O15530)
inhibition / %: -6
//
RECORD SMILES: COc1ccc(C(N)=O)cc1C(=O)Nc1cccc(-c2nncn2C(C)C)n1
TESTED SYSTEM: 3-phosphoinositide-dependent protein kinase 1 (Homo sapiens) (UniProt O15530)
inhibition / %: 7
//
RECORD SMILES: COc1cc(C)c(S(C)(=O)=O)cc1C(=O)Nc1cccc(-c2nncn2C(C)C)n1
TESTED SYSTEM: 3-phosphoinositide-dependent protein kinase 1 (Homo sapiens) (UniProt O15530)
inhibition / %: 11
//
RECORD SMILES: COc1ccc(S(C)(=O)=O)cc1C(=O)Nc1cccc(-c2nncn2C(C)C)n1
TESTED SYSTEM: 3-phosphoinositide-dependent protein kinase 1 (Homo sapiens) (UniProt O15530)
inhibition / %: -2
//
RECORD SMILES: COc1cc(C)c(S(N)(=O)=O)cc1C(=O)Nc1cccc(-c2nncn2C(C)C)n1
TESTED SYSTEM: 3-phosphoinositide-dependent protein kinase 1 (Homo sapiens) (UniProt O15530)
inhibition / %: -2

FYI, the data here is from ChEMBL document CHEMBL4251655.
